Molecular target: CD38 (antigen of the Bioveris affinity determination) (Homo sapiens (Human), UniProt P28907 45-300, limits assumed)
Experiment: Bioveris, Fab format
Quick reference: pKd of the listed items.
Worth noting: pKd values are minus log10 of concentrations stated in mol/L.

For orientation, consider the following solved cases.
- MOR03087 Fab (Fab, V domains shown, Fab format) VH: QVQLVESGGGLVQPGGSLRLSCAASGFTFSSYYMNWVRQAPGKGLEWVSGISGDPSNTYYADSVKGRFTISRDNSKNTLYLQMNSLRAEDTAVYYCARDLPLVYTGFAYWGQGTLVTVSS VL: DIELTQPPSVSVAPGQTARISCSGDNLRHYYVYWYQQKPGQAPVLVIYGDSKRPSGIPERFSGSNSGNTATLTISGTQAEDEADYYCQTYTGGASLVFGGGTKLTVLG: 10.31
- MOR06189 Fab (Fab, V domains shown, Fab format) VH: QVQLVESGGGLVQPGGSLRLSCAASGFTFSSYYMNWVRQAPGKGLEWVSAINMIGNVTNYADSVKGRFTISRDNSKNTLYLQMNSLRAEDTAVYYCARDLPLVYTGFAYWGQGTLVTVSS VL: DIELTQPPSVSVAPGQTARISCSGDNLRHYYVYWYQQKPGQAPVLVIYGDSKRPSGIPERFSGSNSGNTATLTISGTQAEDEADYYCQTYTGGASLVFGGGTKLTVL: 10.61

--- query ---
Please give the documented pKd of MOR03088 Fab (Fab, V domains shown, Fab format) VH: QVQLVESGGGLVQPGGSLRLSCAASGFTFSSYAMNWVRQAPGKGLEWVSGISSWGSSTYYADSVKGRFTISRDNSKNTLYLQMNSLRAEDTAVYYCAREDGSYMTDYFAYWGQGTLVTVSS VL: DIELTQPPSVSVAPGQTARISCSGDNIGHYYVSWYQQKPGQAPVLVIYSDSNRPSGIPERFSGSNSGNTATLTISGTQAEDEADYYCQSYNGTYVFGGGTKLTVLG
8.67
